Test: in vivo
Assay type: in vivo
Settings: Amphibalanus amphitrite, in vivo; 48 h exposure; read-out: LC50 Mortality
Procedure: Adult A. amphitrite (Cirripedia, Balanidae) were collected from boat docks at Port Mikrolimano and Floisvos, Athens, Greece. Animals were cleaned of epibionts with a small hard brush and meticulously identified as individuals of the species. Adult barnacles were kept in separate aerated glass tanks (20 L) containing 200-μm filtered natural seawater at 27 °C and a 12:12 L:D photoperiod. Tanks were fed with 24-h hatched Artemia sp. […]
// LC50 at 48 h lookup, one value per entry
Field: numeric (µM). Do not append units.

Some molecules with known LC50 at 48 h results, for comparison:
1) C=C1CC[C@@](C)(c2cc(Br)c(C)cc2OC(C)=O)[C@H]1C [Compound 3, allolaurinterol acetate] : 382
2) CC(=O)OCC(Br)C1(C)CC=C2C(C1)C(O)CC1C2(C)CC(OC(C)=O)C2CC21C (stereo not shown) [Compound 15, deoxyparguerol 16-acetate] : 33.4
3) C=C1CC[C@@](C)(c2ccc(C)cc2OC(C)=O)[C@H]1C [Compound 2, debromoallolaurinterol acetate] : 790

-- ask State the recorded LC50 at 48 h for this entry: CC(C)[C@H]1CC(C)(C)[C@@H](O)C2=C1CC[C@H]2C [Compound 7, epibrasilenol]
-- reply 23.4

Where do these numbers come from? They come from paper PMC6891695.
